Tested on: Noggin (protein binding on small-molecule microarray)
Assay: small molecules binding Noggin protein – biochemical, 635/667 nm fluorescence, primary screen (AID 1095);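 also: score merges 667 nm feature fluorescence with signal to noise over triplicate slides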
Conditions: 635 nm fluorescence, higher = more signal
Values of composite z-score greater than or equal to 0.4 map to criterion met; values below map to criterion not met.

Known results for compounds:
compound=NCCCCCCNC(=O)[C@H]1C[C@H]2C(=O)N[C@@H](Cc3ccccc3)C(=O)N2[C@H]1c1cccc(OCCO)c1 system_under_test="Noggin (protein binding on small-molecule microarray)" category="criterion not met"
compound="CC(CO)N1C(=O)[C@@H]2C3C(=O)OCCC/C=C\\[C@H]3OC23C=CCN(CCN2CCOCC2)C(=O)[C@@H]13 (stereo not given in full)" system_under_test="Noggin (protein binding on small-molecule microarray)" category="criterion not met"
compound=COc1ccc(CCNC(=O)[C@@]2(c3ccc([N+](=O)[O-])cc3)CC(=O)N(CC34CC5CC(CC(C5)C3)C4)[C@@H]2c2ccc(CO)cc2I)cc1 system_under_test="Noggin (protein binding on small-molecule microarray)" category="criterion met"
compound=COCC(=C=CC[C@H](O)c1cccc(OCCO)c1)C[C@H](O)c1cc(Cl)cc(Cl)c1O system_under_test="Noggin (protein binding on small-molecule microarray)" category="criterion met"
compound=CCCC(=O)N(CCc1c[nH]c2ccccc12)[C@@H]1CC(C(=O)NCCO)=C[C@H](Oc2c(I)cc(CO)cc2OC)[C@H]1O system_under_test="Noggin (protein binding on small-molecule microarray)" category="criterion not met"
compound=C#CCN1[C@H](/C=C/C2CC2)[C@H](Cc2ccccc2)OC(=O)[C@@H]1Cc1ccccc1 system_under_test="Noggin (protein binding on small-molecule microarray)" category="criterion met"
compound=C=CCNC(=O)[C@H]1[C@@H]2C(=O)O[C@@H](c3ccccc3)[C@@H](c3ccccc3)N2[C@@H](c2ccc(OCCO)cc2)[C@]12C(=O)Nc1ccc(C#CCC(C(=O)OC)C(=O)OC)cc12 system_under_test="Noggin (protein binding on small-molecule microarray)" category="criterion met"
compound=C=CCN1C(=O)[C@]2(Cc3ccccc3)N=C(c3ccc(OCCCO)cc3)O[C@@H]2c2ccccc21 system_under_test="Noggin (protein binding on small-molecule microarray)" category="criterion met"

Request: Given O=C1OCC=C[C@H]2OC34C=CCN(Cn5nnc6ccccc65)C(=O)[C@H]3N(CCCCCO)C(=O)[C@@H]4[C@@H]12 (stereo not given in full) , state whether its composite z-score is at least 0.4.
Result: criterion not met

Request: Given O=C(CS)NCCCCCNC(=O)[C@@H]1C[C@@H]2C(=O)NCC(=O)N2[C@@H]1c1ccc(O)cc1 , state whether its composite z-score is at least 0.4.
Result: criterion not met

Request: Given [N-]=[N+]=Nc1ccccc1C[C@@]1(C(=O)N2CCCCC2)N=C(c2ccc(OCCCO)cc2)O[C@@H]1c1ccccc1N=[N+]=[N-] , state whether its composite z-score is at least 0.4.
Result: criterion not met

---

Biological target: Pro-neuregulin-1, membrane-bound isoform (Homo sapiens) (UniProt Q02297)
Sequence (Q02297 whole entry, looked up, canonical isoform): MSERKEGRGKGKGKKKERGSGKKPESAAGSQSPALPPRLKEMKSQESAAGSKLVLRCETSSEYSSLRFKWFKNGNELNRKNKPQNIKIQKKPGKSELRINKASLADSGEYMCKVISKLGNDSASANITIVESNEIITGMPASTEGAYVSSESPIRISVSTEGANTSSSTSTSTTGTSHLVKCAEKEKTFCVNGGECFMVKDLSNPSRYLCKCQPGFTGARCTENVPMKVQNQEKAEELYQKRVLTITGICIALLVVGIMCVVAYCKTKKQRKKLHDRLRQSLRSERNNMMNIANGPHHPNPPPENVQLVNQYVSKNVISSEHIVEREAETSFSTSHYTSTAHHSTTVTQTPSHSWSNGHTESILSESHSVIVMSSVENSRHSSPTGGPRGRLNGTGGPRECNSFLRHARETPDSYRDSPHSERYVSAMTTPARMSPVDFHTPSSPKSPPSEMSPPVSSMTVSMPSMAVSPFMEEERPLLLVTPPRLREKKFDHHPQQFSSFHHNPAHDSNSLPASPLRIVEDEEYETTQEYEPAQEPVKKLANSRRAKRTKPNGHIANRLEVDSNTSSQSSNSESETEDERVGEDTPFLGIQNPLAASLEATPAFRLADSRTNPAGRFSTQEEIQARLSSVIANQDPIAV
Assay: small molecules binding neuregulin-1 protein – biochemical, small-molecule microarray, fluorescence 635/667, psychiatric disease protein project, primary screen (AID 1075);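 also: score combines 667 nm spot fluorescence with signal to noise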
Settings: NRG1 binding, 635 nm fluorescence, higher = more signal
Field: composite z-score. Provide a value for each of the molecules that follow.
One number for each entry.

I need composite z-score for every entry listed below, if you could help.
1. OCC1C=C(/C=C/c2ccccc2)CN1Cc1ccccc1Br (stereo not drawn)
2. CCCNC(=O)[C@@H]1c2ccccc2C(=O)N(Cc2ccccc2OC)[C@H]1c1ccc(CO)cc1
3. COCCOC(=O)N1C(=O)[C@@]2(c3ccccc31)[C@H](C(=O)N1CCCCCCC1)[C@H]1C(=O)O[C@H](c3ccccc3)[C@H](c3ccccc3)N1[C@@H]2c1ccc(OCCO)cc1
4. C[N+](C)(C)CCCC[C@@H]1NC(=O)[C@@H]2C[C@H](C(=O)NCCCCCN)[C@H](c3ccc(O)cc3)N2C1=O
5. [N-]=[N+]=NCc1ccccc1[C@H]1OC(c2ccc(OCCCO)cc2)=N[C@@]1(Cc1ccccc1)C(=O)N1CCCCC1
6. CN(C)CCCC[C@@H]1NC(=O)[C@H]2C[C@@H](C(=O)NCCCCCN)[C@@H](c3cccc(OCCO)c3)N2C1=O
7. COc1ccccc1CN1C(=O)c2ccccc2[C@@]2(Cc3ccccc3N(CCCN(C)C)C2=O)[C@@H]1c1ccc(CO)cc1
8. NC(=O)N1C(=O)C2C(C1=O)C1C=C(CCCO)C2C(C2CC2)N1Cc1cc2c(cc1Br)OCO2 (stereo not drawn)

Result:
1: 0.808; 2: 1.66; 3: 2.93; 4: 1.54; 5: 0.947; 6: 2.28; 7: -0.141; 8: 0.946

---

Field: composite z-score. Provide a value for each of the compounds that follow.
Molecular target: Torsin-1A-interacting protein 2 (Homo sapiens) (UniProt Q8NFQ8)
Sequence (Q8NFQ8 whole entry, looked up): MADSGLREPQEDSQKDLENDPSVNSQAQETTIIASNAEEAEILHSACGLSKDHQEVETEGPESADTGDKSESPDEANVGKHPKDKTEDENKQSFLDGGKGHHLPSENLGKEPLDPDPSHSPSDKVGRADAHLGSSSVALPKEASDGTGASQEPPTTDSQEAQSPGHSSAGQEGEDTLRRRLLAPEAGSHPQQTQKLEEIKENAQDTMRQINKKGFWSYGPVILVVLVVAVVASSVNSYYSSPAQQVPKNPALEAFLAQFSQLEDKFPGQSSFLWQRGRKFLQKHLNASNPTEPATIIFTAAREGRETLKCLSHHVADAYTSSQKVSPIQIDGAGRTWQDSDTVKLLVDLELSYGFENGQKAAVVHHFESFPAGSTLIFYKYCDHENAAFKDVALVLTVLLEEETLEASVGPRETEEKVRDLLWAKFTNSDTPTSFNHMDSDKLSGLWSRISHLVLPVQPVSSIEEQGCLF
Experiment: small molecules binding lysate-expressed LULL1 – cell lysate, human LULL1 lysate, 635/667 nm fluorescence, primary screen (AID 1092);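 also: probe is lysate of COS7 cells overexpressing human LULL1; score merges per-feature 667 nm fluorescence with signal-to-noise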
Conditions: small-molecule microarray, hLULL1 lysate binding, 635 nm fluorescence; higher = more signal

compound=CC(C)NC(=O)[C@@]1(Cc2ccccc2I)c2ccccc2C(=O)N(Cc2ccccc2Cl)[C@H]1c1ccc(CO)cc1 property="composite z-score" measurement=2.59
compound="CN1CCC(CCCO)=CC1c1cccs1 (configuration not stated)" property="composite z-score" measurement=-0.93
compound=C=C(CCCC)C(=O)CC[C@H](OC(=O)c1cccnc1)c1ccc(OCCO)cc1 property="composite z-score" measurement=0.434
compound=COCC(=C=CC[C@H](O)c1cccc(OCCO)c1)C[C@H](O)c1cc(Cl)cc(Cl)c1O property="composite z-score" measurement=1.29
compound="[N-]=[N+]=NCc1ccccc1C[C@@]1(C(=O)NCC(O)CO)N=C(c2ccc(OCCCO)cc2)O[C@@H]1c1ccccc1 (some centres not stated)" property="composite z-score" measurement=3.21
compound="COc1cc(OC)c(C(O)C2C=CC3C(=O)NC(=O)C3N2Nc2ccccn2)cc1Br (configuration not stated)" property="composite z-score" measurement=0.645
compound=CC(C)Cc1ccc(CN2CC[C@@H](N)C2)cc1 property="composite z-score" measurement=-1.26
compound="CC(C)=CCCC(C)=CC(O)C1C=CC2C(=O)N(c3ccccc3)C(=O)C2N1Nc1ccc(C(C)C)cc1 (configuration not stated)" property="composite z-score" measurement=3
compound="COc1ccc(C(O)C2C=CC3C(=O)N(C)C(=O)C3N2NC(=O)OC(C)(C)C)c2ccccc12 (configuration not stated)" property="composite z-score" measurement=3.12
compound=O=C1O[C@@H](c2ccccc2)[C@@H](c2ccccc2)N2[C@@H](c3ccccc3OCCO)[C@]3(C(=O)Nc4ccc(C#CC5(O)CCCCCC5)cc43)[C@@H](C(=O)N3CCN(c4ncccn4)CC3)[C@H]12 property="composite z-score" measurement=2.9

I need composite z-score for every entry listed below, if you could help.
1. O=C(O)[C@@]1(CCS(=O)(=O)c2ccccc2)N=C(c2ccc(OCCCO)cc2)O[C@H]1c1ccccc1
2. COC(=O)C[C@H]1O[C@@H](CCc2ccccc2)[C@@H](C)[C@@H]1[Si](C)(C)c1ccc(OC)cc1
3. CCCCC(=C=CC[C@@H](O)c1ccc(CO)o1)CCO
4. C#CCN1[C@H](/C=C/C2CC2)[C@H](Cc2ccccc2)OC(=O)[C@@H]1Cc1ccccc1
5. O=C1N(CCS(=O)(=O)c2ccccc2)c2ccccc2[C@@H]2OC(c3ccc(OCCCO)cc3)=N[C@]12Cc1ccccc1

Result:
3.46
-0.722
0.418
0.613
2.45

---

Field: z-score. Provide a value for each of the compounds that follow.
Assay: compound effects on differentiated 3T3-L1 adipocyte viability – cell-based, 3T3-L1 adipocytes, calcein-AM fluorescence, 48 h, basal, profiling panel (AID 1163); also: test concentration not given here
Conditions: 3T3-L1 adipocytes viability, higher = more signal
One number for each entry.

compound="CC(c1ccccc1)C(O)C1C=CC2C(=O)N(c3ccccc3)C(=O)C2N1Nc1ccccc1 (centres undefined)" property=z-score measurement=0.618
compound=C=CCNC(=O)[C@H]1[C@@H]2C(=O)O[C@@H](c3ccccc3)[C@@H](c3ccccc3)N2[C@@H](c2ccc(O)cc2)[C@]12C(=O)Nc1ccc(C#CCCO)cc12 property=z-score measurement=-0.655
compound="CCCCN1CC=CC23O[C@@H]4/C=C\\CCCOC(=O)C4[C@H]2C(=O)N(CCCCCO)[C@@H]3C1=O (some centres undefined)" property=z-score measurement=1.14

Given item Cc1ccc(S(=O)(=O)N2C[C@@H](C(=O)O)[C@H](Sc3ccccc3)C[C@H]2c2ccccc2)cc1 , the value recorded as its z-score is -0.27

---

Assay: ATP-based viability of Huh7 replicon cells – cell-based, CellTiter-Glo luminescence, basal, 48 h, cytotoxicity control for HCV replication inhibitor project, primary screen (AID 1143);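 also: Huh7 hepatoma cells carrying a hepatitis C replication reporter with no stimulus; test concentration not given here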
Settings: higher = more signal, called active from +8 up or from −8 down
Values of z-score greater than or equal to -1 map to met; values below map to not met.

Known results for compounds:
compound=CO[C@H]1O[C@H](CO)[C@@H](OC(=O)Nc2ccc(Oc3ccccc3)cc2)[C@H](OC(=O)Nc2ccc3c(c2)OCO3)[C@@H]1OC(=O)Nc1ccc2c(c1)OCO2 category="not met"
compound=COCC(=C=CC[C@H](O)c1cccc(OCCO)c1)CCO category=met
compound="CN1CCC(CCCO)=CC1c1cccs1 (stereo unspecified)" category=met
compound=COc1ccc([Si](C)(C)[C@H]2[C@H](CCO)O[C@@]3(C(=O)N(Cc4ccccc4)c4ccc(N5CCCCC5=O)cc43)[C@@H]2C)cc1 category="not met"
compound=CC[C@@H]1C=C(C(=O)O)[C@H](c2cccc3ccccc23)N1S(=O)(=O)c1ccc(C)cc1 category=met
compound=COC(=O)[C@@]1(CCC(=O)OC(C)(C)C)N=C(c2ccc(OCCCO)cc2)O[C@H]1c1ccccc1 category="not met"
compound=CC#CC(=O)Oc1ccc(Br)cc1C=CC(=O)OCC category="not met"
compound="O=C1C2C=CC(C(O)c3ccc(-c4ccccc4)s3)N(Nc3ccccc3)C2C(=O)N1c1ccccc1 (stereo unspecified)" category=met
compound=COc1ccccc1CN1C(=O)c2ccccc2[C@@H](C(=O)NCc2ccccc2)[C@@H]1c1ccc(CO)cc1 category=met
compound=COCCOC(=O)N1C(=O)[C@@]2(c3cc(C#CCCO)ccc31)[C@H](c1ccc(O)cc1)N1[C@H](c3ccccc3)[C@H](c3ccccc3)OC(=O)[C@H]1[C@@H]2C(=O)N1CCN(c2ncccn2)CC1 category="not met"

Request: Given CC(C)N1CC=CC23O[C@@H]4C=CCOC(=O)[C@@H]4[C@H]2C(=O)N(CCCCCO)[C@@H]3C1=O (stereo partly specified) , state whether its z-score is at least -1.
Result: not met

Request: Given COc1ccc([Si](C)(C)[C@H]2[C@H](CC(=O)N3CCC[C@H]3CO)O[C@@]3(C(=O)N(Cc4cccc(N5CCOC5=O)c4)c4ccccc43)[C@@H]2C)cc1 , state whether its z-score is at least -1.
Result: not met
